System: wheat germ agglutinin (Triticum aestivum), Alexa647-labelled
EXPERIMENT_NOTES: wheat germ agglutinin binders on compound microarrays, profiling panel, artefact control for SMM control-protein annotation, biochemical, small-molecule microarray, 635/667 nm fluorescence (AID 1140);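 further: score merges 667 nm feature emission with signal to noise over triplicate slides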
SETTINGS: WGA-A647 binding, 635 nm fluorescence, higher = more signal
MEASURED_ATTRIBUTE: composite z-score
Numbers only.

Would you be so kind as to report composite z-score for each listed record?
1. COC(=O)CC=C[C@H](C)[C@@H](OCc1cccc(Br)c1)[C@@H](C)[C@H](OC)C1CCCCC1
2. CC[C@@H](c1ccccc1)n1c(=O)n2n(c1=O)[C@H]1[C@H](O)[C@@H]3O[C@@H]3C(=NOC[C@@H](O)COCc3ccco3)[C@H]1CC2
3. CCOC(=O)CCN1C(=O)[C@H]2[C@H]3[C@H](O)[C@H](O)CC(=NNC(=O)OCc4ccccc4)[C@@H]3CC[C@H]2C1=O
4. C#CCCCON=C1C[C@@H](O)[C@@H](O)[C@@H]2[C@@H]3C(=O)N(c4cccc(Oc5ccccc5)c4)C(=O)[C@@H]3CC[C@H]12
5. CCOC(=O)[C@H](Cc1ccccc1)NC(=O)CCC1CC(OC(=O)NCCc2ccc(F)cc2)CC2(CCCC(COC(=O)NCCOC)O2)O1 (stereo not given in full)
6. COC(=O)[C@H]1[C@@H](O)[C@@]2(O)c3ccccc3O[C@@]2(c2ccccc2)[C@@H]1c1ccccc1
7. COCCNC(=O)OCC1CCCC2(CC(OC(=O)NCc3ccc4c(c3)OCO4)CC(CCC(=O)N[C@@H](C)C(=O)OC)O2)O1 (stereo not given in full)

A:
1: 0.325; 2: 0.534; 3: 0.304; 4: 0.272; 5: 0.526; 6: 1.01; 7: 0.139

Look up composite z-score for the entries below, preserving their order.
1. Cc1ccc(S(=O)(=O)n2c3ccccc3c3nnc(C(=O)c4ccccc4)nc32)cc1
2. CC(CCN1CCCc2nc(C)c(C)cc21)=NO[C@@H](C)c1cc(-c2c(C)cc(C)cc2C)no1
3. CC(C)(C)N1C(=O)[C@H]2[C@H]3[C@H](O)[C@H](O)CC(=O)[C@@H]3CC[C@H]2C1=O
4. CO[C@H]1COC(=O)[C@H](C)NC(=O)[C@@H](C)COC(=O)[C@H]2CCCN2C(=O)CC=C[C@H]1C
5. CCOC(=O)NN=C1C[C@@H](O)[C@@H](O)[C@@H]2[C@@H]3C(=O)N(c4ccc(F)cc4F)C(=O)[C@@H]3CC[C@@H]12
6. CON=C1[C@H]2CCn3c(=O)n(-c4ccccc4)c(=O)n3[C@H]2[C@H](O)[C@@H]2O[C@H]12
7. CCCNC(=O)OC[C@H]1O[C@H](CCON=C(C)CCN2CCCc3nc(C)c(C)cc32)C=C[C@@H]1Oc1ccc(OC)cc1
8. CCc1cc2c(nc1CC)CCN(CCC(C)=NO[C@@H](C)c1cn([C@H](CO)Cc3ccccc3)nn1)C2

A:
[-0.218, 0.605, 0.138, -0.375, 0.455, 0.168, 0.625, 0.307]

----------
EXPERIMENT_NOTES: small-molecule binders of probe aNOTCH2, primary screen, biochemical, small-molecule microarray, 635/667 nm fluorescence (AID 1121);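 further: score merges feature fluorescence read at 667 nm with its signal to noise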
SETTINGS: higher = more signal
MEASURED_ATTRIBUTE: composite z-score

Some compounds with known composite z-score results, for comparison:
# COMPOUND, composite z-score
data = [
    ("CCCNC(=O)OC[C@H]1O[C@H](CCON=Cc2ccc(C(=O)N3[C@H](c4ccc(C)cc4)[C@@H](C)CC[C@H]3C(=O)OC)cc2)C=C[C@@H]1Oc1ccc(OC)cc1", -0.172),
    ("O=C1OCCC=C1C(O)CCc1ccccc1 (stereo unspecified)", -0.145),
    ("CC(CCN1CCCCc2nc(C)c(C)cc21)=NOC[C@@H](O)COCc1ccco1", -0.137),
    ("COC(=O)[C@@H]1CC[C@@H](C)[C@H](c2ccc(Br)cc2)N1", -0.0165),
    ("CO[C@H]1COC(=O)CC=C[C@H](C)[C@@H](OC)COC(=O)[C@@H](C)COC(=O)CC=C[C@@H]1C", -0.146),
]

# per-item lookup of composite z-score; items listed below
1. C=Cc1ccc([C@H]2N[C@H](C(=O)O)CC[C@@H]2C)cc1
2. C[C@@H](c1ccccc1)N1C(=O)[C@H]2[C@H]3[C@H](O)[C@H](O)CC(=NO[C@@H]4O[C@H](CO)[C@@H](O)[C@H](O)[C@H]4O)[C@@H]3CC[C@H]2C1=O
3. CC(=O)Nc1ccc([C@@H]2N[C@H](C(=O)O)CC[C@H]2C)cc1
4. CCO[C@H](c1cc(OC)cc([N+](=O)[O-])c1OC)[C@H](C)C=CCC(=O)OC
5. CC(C)CON=C1[C@H]2CCn3c(=O)n(Cc4cc5c(cc4Cl)OCO5)c(=O)n3[C@H]2[C@H](O)[C@@H]2O[C@H]12
6. C[C@@H](c1ccccc1)N1C(=O)[C@H]2[C@H]3[C@H](O)[C@H](O)CC(=NOCc4ccccc4)[C@H]3CC[C@H]2C1=O
7. C[C@@H](c1ccccc1)N1C(=O)[C@H]2[C@H]3[C@H](O)[C@H](O)CC(=O)[C@H]3CC[C@H]2C1=O
8. O=C1C[C@@H](O)[C@@H](O)[C@@H]2[C@@H]3C(=O)N(C[C@@H]4CCCO4)C(=O)[C@@H]3CC[C@H]12

A:
1. -0.155
2. -0.109
3. -0.203
4. -0.122
5. -0.0718
6. -0.147
7. -0.226
8. -0.203

Could you report composite z-score for every entry in the following list?
1. COC(=O)CC=C[C@@H](C)[C@@H](C=NO[C@H](C)c1cn([C@H](CO)Cc2ccccc2)nn1)OC
2. CCOC(=O)[C@H](Cc1ccccc1)NC(=O)CCC1CC(OC(=O)NCc2ccc3c(c2)OCO3)CC2(CCCC(COC(=O)NCCC(C)C)O2)O1 (stereo partly specified)
3. CCOC(=O)[C@H](Cc1ccccc1)NC(=O)CCC1CC(OC(=O)NCc2cccc3ccccc23)CC2(CCCC(COC(=O)NCc3ccccc3)O2)O1 (stereo partly specified)

A:
1: -0.118; 2: -0.0707; 3: -0.155
